# measured.target: recombinant homotrimeric HA A/northern shoveler/California/HKWF115/07 H6N4 (Influenza A virus A/northern shoveler/California/HKWF115/2007(H6N1))
# measurement.notes: protein microarray, purified IgG, trimeric HA
# particulars: remark: other sources report otherwise
Listed below: Trimeric HA Binding: RLU values for each entry.
Provide the reading as a plain figure in RLU.

1. TCN-553 (5261_C18) (antibody, V domains shown) VH: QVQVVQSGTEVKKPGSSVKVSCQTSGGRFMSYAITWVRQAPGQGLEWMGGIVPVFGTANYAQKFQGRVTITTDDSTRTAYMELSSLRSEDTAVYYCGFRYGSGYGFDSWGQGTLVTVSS VL: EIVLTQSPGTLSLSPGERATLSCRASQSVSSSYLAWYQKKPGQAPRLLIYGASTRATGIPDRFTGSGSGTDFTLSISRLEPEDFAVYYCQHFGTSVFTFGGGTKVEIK    20200
2. TCN-532 (5262_H18) (antibody, V domains shown) VH: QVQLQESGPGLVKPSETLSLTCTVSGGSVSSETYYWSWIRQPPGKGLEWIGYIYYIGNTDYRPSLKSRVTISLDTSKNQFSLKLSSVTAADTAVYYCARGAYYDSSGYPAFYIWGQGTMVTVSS VL: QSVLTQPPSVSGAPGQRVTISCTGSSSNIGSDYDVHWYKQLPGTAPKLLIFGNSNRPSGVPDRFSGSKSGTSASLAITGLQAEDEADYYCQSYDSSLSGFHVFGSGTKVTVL    117
3. TCN-530 (5248_H10a) (antibody, V domains shown) VH: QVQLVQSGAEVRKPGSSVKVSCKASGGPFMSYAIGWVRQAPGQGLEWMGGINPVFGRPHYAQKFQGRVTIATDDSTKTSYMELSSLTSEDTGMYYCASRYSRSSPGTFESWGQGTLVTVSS VL: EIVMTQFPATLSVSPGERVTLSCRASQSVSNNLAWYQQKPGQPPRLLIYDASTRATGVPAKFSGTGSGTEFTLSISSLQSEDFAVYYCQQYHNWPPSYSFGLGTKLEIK    9010

Now consider a different binder.
Per the records, this binder ( TCN-539 (5056_A08) (antibody, V domains shown) VH: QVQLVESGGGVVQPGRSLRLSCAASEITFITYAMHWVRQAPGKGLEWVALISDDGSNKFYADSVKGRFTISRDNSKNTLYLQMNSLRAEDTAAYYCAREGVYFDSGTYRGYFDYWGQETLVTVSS VL: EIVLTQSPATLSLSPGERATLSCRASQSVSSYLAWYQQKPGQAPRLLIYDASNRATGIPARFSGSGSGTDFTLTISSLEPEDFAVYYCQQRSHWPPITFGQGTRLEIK ) has Trimeric HA Binding: RLU equal to 124
